Source of measurements: paper PMC12748989

The following compounds are listed with their measured Average (percentage cell inhibition), Mastoparan PBMC values.
Test system: PBMC
Assay context: 12.5 µM
Write the answer as a number in %, unit excluded.

# count of solved cases: 6
Compound: CC[C@H](C)[C@H](N)C(=O)N[C@@H](CC(N)=O)C(=O)N[C@@H](CC(C)C)C(=O)N[C@@H](CCCCN)C(=O)N[C@@H](C)C(=O)N[C@@H](CC(C)C)C(=O)N[C@@H](C)C(=O)N[C@@H](C)C(=O)N[C@@H](CC(C)C)C(=O)N[C@@H](C)C(=O)N[C@@H](CCCCN)C(=O)N[C@@H](CCCCN)C(=O)N[C@@H](CCCNC(=N)N)C(=O)N[C@@H](CC(C)C)C(N)=O [R13]
Readout units: %
Numeric readout: -5.395

Compound: CC[C@H](C)[C@H](N)C(=O)N[C@@H](CC(N)=O)C(=O)N[C@@H](CC(C)C)C(=O)N[C@@H](CCCCN)C(=O)N[C@@H](C)C(=O)N[C@@H](CC(C)C)C(=O)N[C@@H](C)C(=O)N[C@@H](C)C(=O)N[C@@H](CC(C)C)C(=O)N[C@@H](C)C(=O)N[C@@H](CCCCN)C(=O)N[C@@H](Cc1c[nH]cn1)C(=O)N[C@H](C(=O)N[C@@H](CC(C)C)C(N)=O)[C@@H](C)CC [H12]
Readout units: %
Numeric readout: 0.5315

Compound: CC[C@H](C)[C@H](N)C(=O)N[C@@H](CC(N)=O)C(=O)N[C@@H](CC(C)C)C(=O)N[C@@H](CCCCN)C(=O)N[C@@H](Cc1c[nH]c2ccccc12)C(=O)N[C@@H](CC(C)C)C(=O)N[C@@H](C)C(=O)N[C@@H](C)C(=O)N[C@@H](CC(C)C)C(=O)N[C@@H](C)C(=O)N[C@@H](CCCCN)C(=O)N[C@@H](CCCCN)C(=O)N[C@H](C(=O)N[C@@H](CC(C)C)C(N)=O)[C@@H](C)CC [W5]
Readout units: %
Numeric readout: 88.7179

Compound: CC[C@H](C)[C@H](NC(=O)[C@H](CCCCN)NC(=O)[C@H](CCCCN)NC(=O)[C@H](C)NC(=O)[C@H](CC(C)C)NC(=O)[C@H](C)NC(=O)[C@H](C)NC(=O)[C@H](CC(C)C)NC(=O)[C@H](C)NC(=O)[C@H](CCCCN)NC(=O)[C@H](CC(C)C)NC(=O)[C@H](CC(N)=O)NC(=O)[C@@H](N)CCCCN)C(=O)N[C@@H](CC(C)C)C(N)=O [K1]
Readout units: %
Numeric readout: 1.227

Compound: CC[C@H](C)[C@H](N)C(=O)N[C@@H](CC(N)=O)C(=O)N[C@@H](CC(C)C)C(=O)N[C@@H](CCCCN)C(=O)N[C@@H](C)C(=O)N[C@@H](CC(C)C)C(=O)N[C@@H](C)C(=O)N[C@@H](C)C(=O)N[C@@H](CC(C)C)C(=O)N[C@@H](C)C(=O)N[C@@H](CCCCN)C(=O)N[C@@H](CCCCN)C(=O)N[C@H](C(=O)N[C@@H](CC(C)C)C(N)=O)C(C)C [V13]
Readout units: %
Numeric readout: 11.5837

Compound: CC[C@H](C)[C@H](N)C(=O)N[C@@H](CC(N)=O)C(=O)N[C@@H](CC(C)C)C(=O)N[C@@H](CCCCN)C(=O)N[C@@H](C)C(=O)N[C@@H](CCCCN)C(=O)N[C@@H](C)C(=O)N[C@@H](C)C(=O)N[C@@H](CC(C)C)C(=O)N[C@@H](C)C(=O)N[C@@H](CCCCN)C(=O)N[C@@H](CCCCN)C(=O)N[C@H](C(=O)N[C@@H](CC(C)C)C(N)=O)[C@@H](C)CC [K6]
Readout units: %
Numeric readout: -1.883

## Input Form entry - test system: PBMC; read-out: Average (percentage cell inhibition), Mastoparan PBMC; compound: CC[C@H](C)[C@H](N)C(=O)N[C@@H](CC(N)=O)C(=O)N[C@@H](CC(C)C)C(=O)N[C@@H](CCCCN)C(=O)N[C@@H](C)C(=O)N[C@@H](CC(C)C)C(=O)N[C@@H](C)C(=O)N[C@@H](CC(C)C)C(=O)N[C@@H](CC(C)C)C(=O)N[C@@H](C)C(=O)N[C@@H](CCCCN)C(=O)N[C@@H](CCCCN)C(=O)N[C@H](C(=O)N[C@@H](CC(C)C)C(N)=O)[C@@H](C)CC [L8]
## Output 16.9354
